- Tested on: K562 cells
- Test Summary: WST cell growth inhibition, K562
- Format: cell-based, Human
- Assay Context: Homo sapiens, 48 h, WST assay, means ± SD (n = 3)
Observed Property: IC50 (nM)
One number for each entry, in nM.

Cc1nc(Nc2ncc(C(=O)Nc3c(C)cccc3Cl)s2)cc(N2CCN(CCO)CC2)n1 [Dasatinib, dasatinib, reference compound]    0.0793
CN[C@@H](C)C(=O)N(C)[C@H](C(=O)N1CCC[C@H]1c1nc(C(=O)c2cccc(OCCOCCOCCOCC(=O)N3CCN(c4cc(Nc5ncc(C(=O)Nc6c(C)cccc6Cl)s5)nc(C)n4)CC3)c2)cs1)C1CCCCC1    3.93

// Input: "CN[C@@H](C)C(=O)N[C@H](C(=O)N1CCC[C@H]1c1nc(C(=O)c2cccc(OCCOCCOCCOCC(=O)N3CCN(c4cc(Nc5ncc(C(=O)Nc6c(C)cccc6Cl)s5)nc(C)n4)CC3)c2)cs1)C1CCCCC1" . Output its IC50 only.
8.6

Sourced from paper PMC6131351
